Reference source: patent US20260250737A1

# Tested on: SmLux
# PROCEDURE TEXT: Computationally generated LgLux variants expressed in E. coli, tested in lysates with SmLux and substrate 1c
# Type: biochemical
# CONDITION: 50 uM substrate 1c, before SmLux peptide addition
# Procedure: LgLux sequences were designed computationally, and their activity measured as depicted schematically in FIG. 45. A library of the computationally generated LgLux variants were expressed in E. coli and tested in lysates. 20 uM of SmLux and 50 uM of substrate 1c was used for the screening. LgLux_4039 sequence is as set forth in SEQ ID NO:2773. […]
For each entry below, report its Baseline Signal (Normalized by expression) value.
Lab note: jot the number down without any unit.

input: Look up Baseline Signal (Normalized by expression): 5291 (protein) MTPEEIRENVRRFYAALASGDLETAKALFDPGVTITLWDGTTFTSVEEFRAWFEEQFQTSKDALREIVSMEIEGDVVRVLVRLTFVRDGKEEVVDLLQLFKFV
output: 170.2

input: Try this molecule too: 5108 (protein) MTPEEIIENVKAFYAALASGDLEAAKALFDPGTTITLWDGTTFTSLEEFLEWFEKQFEASKDAKREIKSIEVEGNVVKVLVRLTYVKDGKEKVVDLLQLLKFV
output: 167.4
